molecular target: His6-AspH315–758 (human aspartate/asparagine-β-hydroxylase, AspH) (Homo sapiens, UniProt Q12797); construct: N-Terminally His6-tagged human AspH315–758 (His6-AspH315–758) was produced in E. coli BL21 (DE3) cells; made in house; host or cells: E. coli BL21 (DE3), pET-28a(+) vector; assay: SPE-MS AspH inhibition assay (LOPAC screen at fixed 20 μM and IC50 dose-response), hydroxylation of cyclic peptide hFX-CP101–119; assay type: biochemical
Counter-ions that a name gives are not always drawn.
Listed below: Plate 2 (% conversion) values for each entry.
assay.metric: Plate 2 (% conversion) (%)

molecule="CNCCc1ccc(O)c(O)c1.Cl [N-Methyldopamine hydrochloride]" assay_metric="Plate 2 (% conversion)" value=9.52
molecule="NC(Cc1cc(O)c(O)cc1O)C(=O)O (racemic) [6-Hydroxy-DL-DOPA, reference compound]" assay_metric="Plate 2 (% conversion)" value=1.44
molecule="CC1=NN=C(c2ccc(N)cc2)c2cc3c(cc2C1)OCO3.Cl [GYKI 52466 hydrochloride]" assay_metric="Plate 2 (% conversion)" value=38.91
molecule=CC(C)c1cccc(C(C)C)c1O assay_metric="Plate 2 (% conversion)" value=38.08
molecule="CC(Cc1ccc(O)cc1)NCC(O)c1cc(O)cc(O)c1 (stereo not shown) [Fenoterol hydrobromide]" assay_metric="Plate 2 (% conversion)" value=38.93
molecule=Cc1cccc(-c2[nH]ncc2-c2ccc3ncccc3n2)n1 assay_metric="Plate 2 (% conversion)" value=40.48
molecule="Cl.Cn1c(CCCC(=O)O)nc2cc(N(CCCl)CCCl)ccc21 [Bendamustine hydrochloride]" assay_metric="Plate 2 (% conversion)" value=39.38
molecule="CCCN1CCc2cccc3c2[C@H]1Cc1ccc(O)c(O)c1-3.Cl [R(-)-Propylnorapomorphine hydrochloride]" assay_metric="Plate 2 (% conversion)" value=7.83
molecule="C[N+](C)(C)CCCCCC[N+](C)(C)C.[Cl-].[Cl-] [Hexamethonium dichloride]" assay_metric="Plate 2 (% conversion)" value=37.53
molecule="C[N+](C)(C)CCCCCC[N+](C)(C)C [Hexamethonium bromide]" assay_metric="Plate 2 (% conversion)" value=40.56
molecule="OCCN1CCN(CCCN2c3ccccc3Sc3ccc(C(F)(F)F)cc32)CC1 [Fluphenazine dihydrochloride]" assay_metric="Plate 2 (% conversion)" value=63.32
molecule="Cl.O=C(O)Cc1c[nH]cn1 [Imidazole-4-acetic acid hydrochloride]" assay_metric="Plate 2 (% conversion)" value=36.46
molecule=c1ccc(-c2ccccn2)nc1 assay_metric="Plate 2 (% conversion)" value=27.94
molecule="CN1C[C@H](C(=O)N[C@]2(C)O[C@@]3(O)[C@@H]4CCCN4C(=O)[C@H](Cc4ccccc4)N3C2=O)C[C@@H]2c3cccc4[nH]cc(c34)C[C@H]21 [Dihydroergotamine methanesulfonate]" assay_metric="Plate 2 (% conversion)" value=37.10
molecule="CC(N)C(O)c1ccc(O)c(O)c1 (single isomer, unassigned; (-)) [(-)-alpha-Methylnorepinephrine]" assay_metric="Plate 2 (% conversion)" value=7.36
molecule="O=[N+]([O-])c1cc(O)c(O)c([N+](=O)[O-])c1 [3,5-Dinitrocatechol, reference compound]" assay_metric="Plate 2 (% conversion)" value=2.07
molecule=Cc1c2ccncc2c(C)c2c1[nH]c1ccccc12 assay_metric="Plate 2 (% conversion)" value=45.95
molecule="c1ccc2c(c1)[I+]c1ccccc1-2 [Diphenyleneiodonium chloride]" assay_metric="Plate 2 (% conversion)" value=35.66
molecule="CN1CC[C@@]2(C)c3cc(O)ccc3N(C)[C@@H]12.O=C(O)/C=C/C(=O)O [(-)-Eseroline fumarate]" assay_metric="Plate 2 (% conversion)" value=19.71
molecule=Cc1nccc2c1[nH]c1ccccc12 assay_metric="Plate 2 (% conversion)" value=35.31
molecule=CCCCc1ccc(C(=O)O)nc1 assay_metric="Plate 2 (% conversion)" value=28.15
molecule="Cl.Oc1cc2c(cc1O)C(c1ccccc1)CNCC2 (racemic) [(±)-SKF-38393 hydrochloride]" assay_metric="Plate 2 (% conversion)" value=10.11

---

target: His6-AspH315–758 (human aspartate/asparagine-β-hydroxylase, AspH) (Homo sapiens, UniProt Q12797); construct: N-Terminally His6-tagged human AspH315–758 (His6-AspH315–758) was produced in E. coli BL21 (DE3) cells; made in house; host or cells: E. coli BL21 (DE3), pET-28a(+) vector; assay: SPE-MS AspH inhibition assay (LOPAC screen at fixed 20 μM and IC50 dose-response), hydroxylation of cyclic peptide hFX-CP101–119; assay type: biochemical; settings: LOPAC Plate 4, compound at 20 uM, substrate conversion
Structures can show the parent of a compound that is named as a salt.
Parameter: % conversion. Scope: all listed entries.
assay.metric: % conversion

compound="c1ccc2c(c1)CCCC2C1=NCCN1 (stereo not shown) [Tetrahydrozoline hydrochloride]" value=39.98%
compound="Cc1ccc(N(CC2=NCCN2)c2cccc(O)c2)cc1 [Phentolamine mesylate]" value=38.87%
compound=C/C(=C\c1ccc(C(=O)O)cc1)c1ccc2c(c1)C(C)(C)CCC2(C)C value=26.33%
compound="CCCNC(C)C(=O)Nc1ccccc1C (stereo not shown) [Prilocaine hydrochloride]" value=24.92%
compound=C[C@]12C=CC(=O)C=C1CC[C@H]1[C@@H]3C[C@@H](O)[C@](O)(C(=O)CO)[C@@]3(C)C[C@H](O)[C@@]12F value=30.89%
compound="CCC(=O)c1ccc2c(c1)N(CCCN(C)C)c1ccccc1S2 [Propionylpromazine hydrochloride]" value=44.67%
compound=N.N.N.N.N.N.N.N.N.N.N.N.N.N.[Cl-].[Cl-].[Cl-].[Cl-].[Cl-].[Cl-].[O-2].[O-2].[Ru+3].[Ru+3].[Ru+4] value=41.44%

---

Documented Plate 2 (% inhibition) across a set of compounds
Biological target: His6-AspH315–758 (human aspartate/asparagine-β-hydroxylase, AspH) (Homo sapiens)
Construct: N-Terminally His6-tagged human AspH315–758 (His6-AspH315–758) was produced in E. coli BL21 (DE3) cells; made in house; host or cells: E. coli BL21 (DE3), pET-28a(+) vector
Sequence (Q12797 315-758): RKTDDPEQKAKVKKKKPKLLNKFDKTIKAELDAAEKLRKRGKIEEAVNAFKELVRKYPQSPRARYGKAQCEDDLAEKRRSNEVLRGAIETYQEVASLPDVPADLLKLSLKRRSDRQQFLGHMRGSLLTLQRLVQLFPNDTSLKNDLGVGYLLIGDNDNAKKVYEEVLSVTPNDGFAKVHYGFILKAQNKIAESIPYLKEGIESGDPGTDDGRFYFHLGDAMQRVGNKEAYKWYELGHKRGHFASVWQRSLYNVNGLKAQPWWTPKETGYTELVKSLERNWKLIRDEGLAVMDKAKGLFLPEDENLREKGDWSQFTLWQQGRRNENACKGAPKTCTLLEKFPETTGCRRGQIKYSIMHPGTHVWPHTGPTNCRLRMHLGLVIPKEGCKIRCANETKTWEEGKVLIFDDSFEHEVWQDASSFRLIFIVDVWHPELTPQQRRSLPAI
Assay: SPE-MS AspH inhibition assay (LOPAC screen at fixed 20 μM and IC50 dose-response), hydroxylation of cyclic peptide hFX-CP101–119
Assay type: biochemical
Details: LOPAC compound at 20uM, plate 2; normalised to DMSO and 2,4-PDCA controls
assay.metric: Plate 2 (% inhibition) (%)

compound="CN(C)C(N)=NCCC[C@H](N)C(=O)O.Cl [N^G,N^G-Dimethylarginine hydrochloride]" value=-6.05
compound=O=C(O)c1cc(=O)c2c(Cl)cc(Cl)cc2[nH]1 value=0.98
compound="CCCCC1(C2CCCC2)Cc2cc(OCC(=O)O)c(Cl)c(Cl)c2C1=O (stereo in doubt) [R(+)-Butylindazone]" value=8.29
compound="CS(=O)(=O)O.Cn1cc(C(F)(F)F)nc1-c1ccc(OCC(O)CNCCOc2ccc(O)c(C(N)=O)c2)cc1 (centres unmarked) [CGP 20712A methanesulfonate]" value=-1.81
compound=C[N+](C)(C)CCOP(=O)([O-])OP(=O)([O-])OC[C@H]1O[C@@H](n2ccc(N)nc2=O)[C@H](O)[C@@H]1O.[Na+] value=-2.53
